Target: Growth hormone secretagogue receptor type 1 (Homo sapiens, UniProt Q92847)
Sequence (Q92847 whole entry): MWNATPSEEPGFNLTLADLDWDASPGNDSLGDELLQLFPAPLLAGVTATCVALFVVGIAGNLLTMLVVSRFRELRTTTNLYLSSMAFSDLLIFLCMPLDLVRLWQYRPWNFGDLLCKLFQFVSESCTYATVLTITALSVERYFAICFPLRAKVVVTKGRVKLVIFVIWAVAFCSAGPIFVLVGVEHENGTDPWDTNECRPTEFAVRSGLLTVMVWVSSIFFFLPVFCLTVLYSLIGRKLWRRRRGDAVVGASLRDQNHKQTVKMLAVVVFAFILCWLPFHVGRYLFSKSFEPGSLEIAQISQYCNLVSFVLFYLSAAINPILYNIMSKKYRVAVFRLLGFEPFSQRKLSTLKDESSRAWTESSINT
Assay: Activity at human GHS1a receptor expressed in CHO cells assessed as intracellular calcium mobilization relative to 0.1 uM ghrelin
Assay type: functional, cell-based
outcome measure: Activity (%)

# mol smiles, unit spec, Activity
rows = [
    ("COc1cc(Cn2c(Cc3ccccc3)nnc2[C@@H](Cc2c[nH]c3ccccc23)NC(=O)C(C)(C)N)cc(OC)c1", "%", 29),
    ("CC(C)(N)C(=O)N[C@H](Cc1c[nH]c2ccccc12)c1nnc(Cc2ccccc2)n1Cc1ccc(Cl)c(Cl)c1", "%", 64),
    ("COc1ccc(Cn2c(CCCc3c[nH]c4ccccc34)nnc2[C@@H](Cc2c[nH]c3ccccc23)NC(=O)C(C)(C)N)cc1", "%", 0),
]

A: Cc1ccc(Cn2c(Cc3ccccc3)nnc2[C@@H](Cc2c[nH]c3ccccc23)NC(=O)C(C)(C)N)cc1
B: COc1cccc(Cn2c(Cc3ccccc3)nnc2[C@@H](Cc2c[nH]c3ccccc23)NC(=O)C(C)(C)N)c1
Query :: Looking at recorded values for Activity, does A or B come in lower? Reply with the label of the item you choose.
Result :: A

I: CC(C)(N)C(=O)N[C@H](Cc1c[nH]c2ccccc12)c1nnc(CCCc2c[nH]c3ccccc23)n1Cc1ccccc1
II: CC(C)(N)C(=O)N[C@H](Cc1c[nH]c2ccccc12)c1nnc(CCc2ccccc2)n1Cc1ccco1
III: CC(C)(N)C(=O)N[C@H](Cc1c[nH]c2ccccc12)c1nnc(CCCc2c[nH]c3ccccc23)n1CCc1ccccc1
IV: COc1cc(Cn2c(CCc3ccccc3)nnc2[C@@H](Cc2c[nH]c3ccccc23)NC(=O)C(C)(C)N)cc(OC)c1
V: CCCCCCn1c(CCc2c[nH]c3ccccc23)nnc1[C@@H](Cc1c[nH]c2ccccc12)NC(=O)C(C)(C)N
Query :: Please produce an ascending ranking of these compounds based on Activity. Sort the labels as requested; that list is your answer.
Result :: IV, III, I, V, II
(IV: 0%, III: 18%, I: 30%, V: 62%, II: 97%)

a: CC(C)(N)C(=O)N[C@H](Cc1c[nH]c2ccccc12)c1nnc(CCc2c[nH]c3ccccc23)n1Cc1ccc(Cl)c(Cl)c1
b: CC(C)(N)C(=O)N[C@H](Cc1c[nH]c2ccccc12)c1nnc(CCc2ccccc2)n1Cc1cccc2ccccc12
Query :: Form: Entry with minimum Activity (choose one): a / b # answer = label of selected item
Result :: a

---

System: Rattus norvegicus
Assay: Stimulation of cumulative food intake per 100 g body weight in Sprague-Dawley rat at 160 ug/kg, sc at 6 hrs
Format: functional
Measured Activity of individual entries
Lab book: enter the figure in g, no units written.

# mol smiles, target system, Activity, g
records = [
    ("CC(C)(N)C(=O)N[C@H](Cc1c[nH]c2ccccc12)c1nnc(CCc2c[nH]c3ccccc23)n1CCc1c[nH]c2ccccc12", "Rattus norvegicus", 0.27),
    ("COc1ccc(Cn2c(CCc3ccccc3)nnc2[C@@H](Cc2c[nH]c3ccccc23)NC(=O)C(C)(C)N)cc1", "Rattus norvegicus", 0.2),
    ("COc1ccc(Cn2c(CCc3c[nH]c4ccccc34)nnc2[C@@H](Cc2c[nH]c3ccccc23)NC(=O)C(C)(C)N)c(OC)c1", "Rattus norvegicus", 0.06),
]

Query :: Reported Activity for `CC(C)(N)C(=O)N[C@H](Cc1c[nH]c2ccccc12)c1nnc(CCc2c[nH]c3ccccc23)n1Cc1ccc(Cl)c(Cl)c1` : what is it?
Result :: 0.41

Query :: So what does the record say about Activity for `COc1ccc(Cn2c(CCc3c[nH]c4ccccc34)nnc2[C@@H](Cc2c[nH]c3ccccc23)NC(=O)C(C)(C)N)cc1` ?
Result :: 0.06

Query :: Record request: Activity value, item `CC(C)(N)C(=O)N[C@H](Cc1c[nH]c2ccccc12)c1nnc(CCc2c[nH]c3ccccc23)n1Cc1ccccc1`
Result :: 0.02

Query :: Would you mind telling me what Activity value was observed for `Cc1ccc(Cn2c(CCCc3ccccc3)nnc2[C@@H](Cc2c[nH]c3ccccc23)NC(=O)C(C)(C)N)cc1` ?
Result :: 0.74

Query :: Query (molecule): `CC(C)(N)C(=O)N[C@H](Cc1c[nH]c2ccccc12)c1nnc(CCCc2c[nH]c3ccccc23)n1CCc1c[nH]c2ccccc12` ; field requested: Activity
Result :: 0.22

Query :: Given the entry `COc1cccc(Cn2c(CCc3ccccc3)nnc2[C@@H](Cc2c[nH]c3ccccc23)NC(=O)C(C)(C)N)c1` , report its measured Activity.
Result :: 0.01

Query :: Consider the molecule shown here: `Cc1ccc(Cn2c(CCc3c[nH]c4ccccc34)nnc2[C@@H](Cc2c[nH]c3ccccc23)NC(=O)C(C)(C)N)cc1` What is its recorded Activity?
Result :: 0.3

---

Target: Growth hormone secretagogue receptor type 1 (Homo sapiens, UniProt Q92847)
Experiment: Displacement of [125I-His9]ghrelin from human GHS1a receptor expressed in LLC PK1 cells
outcome measure: IC50 (nM)

Examples from the recorded data:
# mol smiles, IC50 / nM
rows = [
    ("COc1ccc(Cn2c(Cc3ccccc3)nnc2[C@@H](Cc2c[nH]c3ccccc23)NC(=O)C(C)(C)N)cc1", 121),
    ("COc1cc(Cn2c(Cc3ccccc3)nnc2[C@@H](Cc2c[nH]c3ccccc23)NC(=O)C(C)(C)N)cc(OC)c1", 110),
]

P: COc1ccc(Cn2c(CCc3c[nH]c4ccccc34)nnc2[C@@H](Cc2c[nH]c3ccccc23)NC(=O)C(C)(C)N)c(OC)c1
Q: CC(C)(N)C(=O)N[C@H](Cc1c[nH]c2ccccc12)c1nnc(CCCc2c[nH]c3ccccc23)n1CCc1c[nH]c2ccccc12
R: CC(C)(N)C(=O)N[C@H](Cc1c[nH]c2ccccc12)c1nnc(CCc2ccccc2)n1Cc1cccs1
S: CCCCCCn1c(CCc2c[nH]c3ccccc23)nnc1[C@@H](Cc1c[nH]c2ccccc12)NC(=O)C(C)(C)N
Query :: Sort (4 compounds) by IC50: min first. Thanks in advance for listing the labels in the requested order.
Result :: Q, P, S, R
(Q: 14 nM, P: 108 nM, S: 195 nM, R: 570 nM)

a: CC(C)(N)C(=O)N[C@H](Cc1c[nH]c2ccccc12)c1nnc(CCc2c[nH]c3ccccc23)n1CCc1c[nH]c2ccccc12
b: CC(C)(N)C(=O)N[C@H](Cc1c[nH]c2ccccc12)c1nnc(CCCc2c[nH]c3ccccc23)n1CCc1ccccc1
Query :: Please choose the item with the lower IC50 value from this pair: a and b Provide the label of your selected option as the answer.
Result :: b

A: Cc1ccc(Cn2c(CCc3ccccc3)nnc2[C@@H](Cc2c[nH]c3ccccc23)NC(=O)C(C)(C)N)cc1
B: CC(C)(N)C(=O)N[C@H](Cc1c[nH]c2ccccc12)c1nnc(CCc2ccccc2)n1Cc1ccco1
Query :: // compare: A vs B , metric IC50, want the smaller Respond using the label that marks the chosen record.
Result :: A
(A: 140 nM, B: 420 nM)

a: COc1ccccc1Cn1c(Cc2ccccc2)nnc1[C@@H](Cc1c[nH]c2ccccc12)NC(=O)C(C)(C)N
b: CC(C)(N)C(=O)N[C@H](Cc1c[nH]c2ccccc12)c1nnc(CCCc2c[nH]c3ccccc23)n1Cc1cccc2ccccc12
Query :: Between the entries labelled a and b , which has a larger IC50 value on record? // output: label of the selected item
Result :: a
(a: 410 nM, b: 140 nM)

A: CCCCCCn1c(Cc2ccccc2)nnc1[C@@H](Cc1c[nH]c2ccccc12)NC(=O)C(C)(C)N
B: CC(C)(N)C(=O)N[C@H](Cc1c[nH]c2ccccc12)c1nnc(CCc2ccccc2)n1Cc1cccc2ccccc12
Query :: Lab note: record which item had the higher IC50, A or B . State your choice using its label.
Result :: A
(A: 470 nM, B: 130 nM)

---

Biological target: Growth hormone secretagogue receptor type 1 (Homo sapiens, UniProt Q92847)
Test: Antagonist activity at human GHS1a receptor expressed in CHO cells assessed as inhibition of ghrelin-induced intracellular calcium mobilization
Type: functional, cell-based
outcome measure: Kb (µM)

// below: answered compounds
# mol smiles, unit spec, Kb
data = [
    ("COc1ccc(Cn2c(CCc3ccccc3)nnc2[C@@H](Cc2c[nH]c3ccccc23)NC(=O)C(C)(C)N)c(OC)c1", "µM", 0.017),
    ("COc1ccc(Cn2c(CCCc3ccccc3)nnc2[C@@H](Cc2c[nH]c3ccccc23)NC(=O)C(C)(C)N)cc1", "µM", 0.014),
    ("COc1ccc(Cn2c(CCCc3c[nH]c4ccccc34)nnc2[C@@H](Cc2c[nH]c3ccccc23)NC(=O)C(C)(C)N)cc1", "µM", 0.012),
]

I: COc1ccc(Cn2c(CCc3c[nH]c4ccccc34)nnc2[C@@H](Cc2c[nH]c3ccccc23)NC(=O)C(C)(C)N)c(OC)c1
II: COc1ccc(Cn2c(CCc3ccccc3)nnc2[C@@H](Cc2c[nH]c3ccccc23)NC(=O)C(C)(C)N)cc1
Query :: Recorded Kb values differ for I and II ; which one is higher? Indicate which entry you chose by stating its label.
Result :: I
(I: 0.014 µM, II: 0.005 µM)
